- STUDY TARGET: PDE III (Canis lupus familiaris, UniProt A0A8I3NYE0)
- Construct: isolated from canine aortic smooth, ventricular or tracheal smooth muscle sources; DEAE-cellulose peak III
- Sequence (A0A8I3NYE0 1-1135): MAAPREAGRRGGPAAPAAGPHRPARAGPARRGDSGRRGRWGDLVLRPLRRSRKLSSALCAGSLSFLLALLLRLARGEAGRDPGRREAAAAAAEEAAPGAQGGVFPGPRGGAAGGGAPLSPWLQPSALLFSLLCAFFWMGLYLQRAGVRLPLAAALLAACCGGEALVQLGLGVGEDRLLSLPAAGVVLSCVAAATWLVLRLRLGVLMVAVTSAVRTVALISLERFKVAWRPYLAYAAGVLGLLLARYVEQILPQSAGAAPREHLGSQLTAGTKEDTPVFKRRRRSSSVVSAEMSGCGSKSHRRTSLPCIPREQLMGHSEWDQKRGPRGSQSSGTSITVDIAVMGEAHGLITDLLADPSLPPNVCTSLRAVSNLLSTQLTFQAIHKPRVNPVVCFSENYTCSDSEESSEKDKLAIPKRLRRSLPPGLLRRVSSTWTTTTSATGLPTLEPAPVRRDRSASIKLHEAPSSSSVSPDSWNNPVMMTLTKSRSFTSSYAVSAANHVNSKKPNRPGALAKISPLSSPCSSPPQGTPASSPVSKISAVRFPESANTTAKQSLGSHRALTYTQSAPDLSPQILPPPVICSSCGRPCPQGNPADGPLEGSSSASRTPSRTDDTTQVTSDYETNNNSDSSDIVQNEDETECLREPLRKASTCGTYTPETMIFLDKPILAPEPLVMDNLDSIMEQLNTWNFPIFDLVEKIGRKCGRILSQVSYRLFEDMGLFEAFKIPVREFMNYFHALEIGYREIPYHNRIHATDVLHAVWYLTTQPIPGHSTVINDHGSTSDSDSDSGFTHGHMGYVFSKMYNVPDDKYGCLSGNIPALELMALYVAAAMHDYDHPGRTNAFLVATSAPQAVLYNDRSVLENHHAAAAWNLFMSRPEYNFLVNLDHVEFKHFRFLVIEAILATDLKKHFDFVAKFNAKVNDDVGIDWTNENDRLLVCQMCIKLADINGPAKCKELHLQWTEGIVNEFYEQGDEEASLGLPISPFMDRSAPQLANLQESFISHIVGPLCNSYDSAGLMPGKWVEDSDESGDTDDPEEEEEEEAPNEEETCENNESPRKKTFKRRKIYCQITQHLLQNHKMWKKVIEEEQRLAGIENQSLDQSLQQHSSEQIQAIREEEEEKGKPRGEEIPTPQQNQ
- ASSAY PROTOCOL: phosphodiesterase inhibition, PDE III (peak III PDE)
pIC50: −log10 of the molar value.
Hi, to clarify the labels: criterion met covers pIC50 from 7 upward, criterion not met covers anything below 7.

COMPOUND: O=c1[nH]c2cc(-c3cc[n+]([O-])cc3)c(C(F)(F)F)nc2[nH]1
STUDY TARGET: PDE III (Canis lupus familiaris, UniProt A0A8I3NYE0)
CLASS: criterion met

COMPOUND: Cc1nc2[nH]c(=O)[nH]c2cc1-c1ccc(NC(=O)C(F)(F)F)cc1
STUDY TARGET: PDE III (Canis lupus familiaris, UniProt A0A8I3NYE0)
CLASS: criterion not met

COMPOUND: CCCCCCS(=O)(=O)Nc1ccc(-c2cc3[nH]c(=O)[nH]c3nc2C)cc1
STUDY TARGET: PDE III (Canis lupus familiaris, UniProt A0A8I3NYE0)
CLASS: criterion met

COMPOUND: Cc1nc2[nH]c(=O)[nH]c2cc1-c1ccc(NS(C)(=O)=O)cc1
STUDY TARGET: PDE III (Canis lupus familiaris, UniProt A0A8I3NYE0)
CLASS: criterion not met

# ---- query compound ----
Kindly determine if pIC50 recorded for O=c1[nH]c2cc(-c3ccncc3)c(C(F)(F)F)nc2[nH]1 [1(e)] is above or exactly 7. criterion met
